TGI reference
# System: SK-MEL-5 melanoma
# Experiment: NCI tumour cell line growth inhibition, 48 h

Compound: NCCNc1nc2ccc(F)cc2c2c(=O)c3cc(F)ccc3sc12
TGI: 3.25 µM

Here OC1CCSc2ccccc21 (stereo unspecified) was tested on SK-MEL-5 melanoma, and its TGI came to > 100 µM

Here CN(CCc1ccccn1)c1ccc2c(c1)Cc1ccccc1-2 was tested on SK-MEL-5 melanoma, and its TGI came to 31.3 µM

* * *

# Tested on: LOX IMVI melanoma
# Experiment: NCI tumour cell line growth inhibition, 48 h
Peptide text beside a SMILES is read from it. * marks the point of attachment. Cbz = O=C(OCc1ccccc1)*
Parameter: TGI

Consider the reported TGI for these compounds:
Compound: COc1ccc2c3c1OC1C4(CCC5C(C2)N(CC2CC2)CCC351)OCCO4 (stereo not given)
TGI: > 100 µM
//
Compound: COc1ccccc1N1CCN(CC(O)Cn2c(=O)c3c(OC)nc(C)cc3c(=O)n2-c2ccccc2)CC1 (stereo not given)
TGI: > 100 µM
//
Compound: CC/C(=N/O)C(C)C(=O)CCC(=O)Nc1ccc(Cl)cc1 (stereo not given)
TGI: > 100 µM
//
Compound: O=C(Oc1c(Cl)c(Cl)c(Cl)c(Cl)c1Cl)C1CCCN1C(=O)OCc1ccccc1 (stereo not given)
TGI: 8.6 µM
//
Compound: CNc1ccc(Cl)cc1C(=O)N1CCC[C@H]1CO
TGI: > 100 µM

Item: CCOC(=O)/C(=C/c1ccccc1)N(CC)CC | TGI: > 100 µM

Item: O=C(Cn1c2c(c3ccccc31)CCCC2)N1CCOCC1 | TGI: > 100 µM

Item: Cc1cc(=O)[nH]c(S(=O)(=O)NC(=O)Nc2cccc(Cl)c2)n1 | TGI: > 100 µM

Item: Cc1ccc(Nn2c(SCC(=O)Nc3nc(-c4ccccc4)cs3)nc(C)c2C)cc1 | TGI: 19.3 µM

Item: CC(C)C(=O)CC(c1ccc(Br)cc1)N1N=C(C(C)C)CC1c1ccc(Br)cc1 (stereo not given) | TGI: > 100 µM

Item: CCOC(=O)CCC(NC(=O)CNC(=O)CNC(=O)C(CCC(=O)OCC)NC(=O)C(CCC(=O)OCC)NC(=O)C(CCC(=O)OCC)NC(=O)OCc1ccccc1)C(=O)NC(CCC(=O)OCC)C(=O)NC(CCC(=O)OCC)C(=O)OCC (stereo not given) (Cbz-E(OEt)E(OEt)E(OEt)GGE(OEt)E(OEt)E(OEt)-OEt; configuration not given here) | TGI: > 75 µM

Item: O=C1NC(=O)C23C(=O)NC(=O)C12C1C=CC3CC1 (stereo not given) | TGI: > 10 µM

Item: O=C1C2CCCCC2C(=O)N1n1c(Cc2ccccc2)n[nH]c1=O (stereo not given) | TGI: > 100 µM

Item: CCCCCCCCCCCCCC/C(C(=O)O)=C(\C)C(=O)O | TGI: > 100 µM

Reference source: PubChem BioAssay (NCI)
